Sourced from ChEMBL document CHEMBL3580572

Collected EC50 values appear next to each entry.
Molecular target: Mu-type opioid receptor (Homo sapiens)
Sequence (P35372 whole entry): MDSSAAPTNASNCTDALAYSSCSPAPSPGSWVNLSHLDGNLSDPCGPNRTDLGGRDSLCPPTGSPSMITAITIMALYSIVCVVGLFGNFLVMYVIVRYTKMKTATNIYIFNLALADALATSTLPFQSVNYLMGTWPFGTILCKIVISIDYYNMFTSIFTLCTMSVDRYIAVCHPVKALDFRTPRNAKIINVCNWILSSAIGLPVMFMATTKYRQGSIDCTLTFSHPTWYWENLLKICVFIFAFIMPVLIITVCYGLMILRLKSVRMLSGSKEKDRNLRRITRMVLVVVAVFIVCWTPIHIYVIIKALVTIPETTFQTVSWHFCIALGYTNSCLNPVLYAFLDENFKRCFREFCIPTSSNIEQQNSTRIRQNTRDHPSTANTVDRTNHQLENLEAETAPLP
Assay: Agonist activity at human recombinant mu opioid receptor expressed in CHO cells co-expressing C-terminally modified GGalphaqi5 assessed as stimulation of calcium release by Fluo-4 AM dye-based fluorescence assay
Where a SMILES comes first, the peptide text is derived from it. Bridges are numbered along the chain shown (N, C = ends). [ ]: non-standard residue; d: D form. Phe(4-CF3) = N[C@@H](Cc1ccc(C(F)(F)F)cc1)C(=O)O; Dmt = Cc1cc(O)cc(C)c1C[C@H](N)C(=O)O

- Molecule: "NC(=O)[C@@H]1CC(=O)NCCCC[C@@H](NC(=O)[C@@H](N)Cc2ccc(O)cc2)C(=O)N[C@@H](Cc2ccc(F)cc2)C(=O)N[C@@H](Cc2ccccc2)C(=O)N1"
  Experimental system: "Mu-type opioid receptor (Homo sapiens)"
  EC50: "2.57 nM"
- Molecule: "Cc1cc(O)cc(C)c1C[C@H](N)C(=O)N[C@@H]1CCCCNC(=O)C[C@@H](C(N)=O)NC(=O)[C@H](Cc2ccc(F)cc2F)NC(=O)[C@H](Cc2ccccc2)NC1=O"
  Experimental system: "Mu-type opioid receptor (Homo sapiens)"
  EC50: "1.66 nM"
- Molecule: "NC(=O)[C@@H]1CC(=O)NCCCC[C@@H](NC(=O)[C@@H](N)Cc2ccc(O)cc2)C(=O)N[C@@H](Cc2ccccc2)C(=O)N[C@@H](Cc2ccc(C(F)(F)F)cc2)C(=O)N1"
  Experimental system: "Mu-type opioid receptor (Homo sapiens)"
  EC50: "5.25 nM"
- Molecule: "Cc1cc(O)cc(C)c1C[C@H](N)C(=O)N[C@@H]1CCCCNC(=O)C[C@@H](C(N)=O)NC(=O)[C@H](Cc2ccc(C(F)(F)F)cc2)NC(=O)[C@H](Cc2ccccc2)NC1=O (H-[Dmt][dK]F[Phe(4-CF3)]D-NH2; lactam 2-5)"
  Experimental system: "Mu-type opioid receptor (Homo sapiens)"
  EC50: "6.76 nM"
- Molecule: "Cc1cc(O)cc(C)c1C[C@H](N)C(=O)N[C@@H]1CCCCNC(=O)C[C@@H](C(N)=O)NC(=O)[C@H](Cc2ccccc2)NC(=O)[C@H](Cc2ccc(F)cc2F)NC1=O"
  Experimental system: "Mu-type opioid receptor (Homo sapiens)"
  EC50: "5.13 nM"
- Molecule: "NC(=O)[C@@H]1CC(=O)NCCCC[C@@H](NC(=O)[C@@H](N)Cc2ccc(O)cc2)C(=O)N[C@@H](Cc2ccc(F)cc2F)C(=O)N[C@@H](Cc2ccccc2)C(=O)N1"
  Experimental system: "Mu-type opioid receptor (Homo sapiens)"
  EC50: "4.07 nM"
- Molecule: "Cc1cc(O)cc(C)c1C[C@H](N)C(=O)N[C@@H]1CCCCNC(=O)C[C@@H](C(N)=O)NC(=O)[C@H](Cc2ccc(F)cc2)NC(=O)[C@H](Cc2ccccc2)NC1=O"
  Experimental system: "Mu-type opioid receptor (Homo sapiens)"
  EC50: "2.75 nM"

* * *

Target: Kappa-type opioid receptor (Homo sapiens)
Test: Agonist activity at human recombinant kappa opioid receptor expressed in CHO cells co-expressing C-terminally modified Galphaqi5 assessed as stimulation of calcium release by Fluo-4 AM dye-based fluorescence assay
pEC50: −log10 of the molar value. Where a SMILES comes first, the peptide text is derived from it. Bridges are numbered along the chain shown (N, C = ends). [ ]: non-standard residue; d: D form. Phe(4-CF3) = N[C@@H](Cc1ccc(C(F)(F)F)cc1)C(=O)O; Dmt = Cc1cc(O)cc(C)c1C[C@H](N)C(=O)O

- Molecule: "Cc1cc(O)cc(C)c1C[C@H](N)C(=O)N[C@@H]1CCCCNC(=O)C[C@@H](C(N)=O)NC(=O)[C@H](Cc2ccccc2)NC(=O)[C@H](Cc2ccc(F)cc2F)NC1=O"
  pEC50: 8.55
- Molecule: "NC(=O)[C@@H]1CC(=O)NCCCC[C@@H](NC(=O)[C@@H](N)Cc2ccc(O)cc2)C(=O)N[C@@H](Cc2ccc(F)cc2)C(=O)N[C@@H](Cc2ccccc2)C(=O)N1"
  pEC50: 8.00
- Molecule: "NC(=O)[C@@H]1CC(=O)NCCCC[C@@H](NC(=O)[C@@H](N)Cc2ccc(O)cc2)C(=O)N[C@@H](Cc2ccccc2)C(=O)N[C@@H](Cc2ccc(F)cc2)C(=O)N1"
  pEC50: 8.98
- Molecule: "Cc1cc(O)cc(C)c1C[C@H](N)C(=O)N[C@@H]1CCCCNC(=O)C[C@@H](C(N)=O)NC(=O)[C@H](Cc2ccc(F)cc2)NC(=O)[C@H](Cc2ccccc2)NC1=O"
  pEC50: 8.65
- Molecule: "Cc1cc(O)cc(C)c1C[C@H](N)C(=O)N[C@@H]1CCCCNC(=O)C[C@@H](C(N)=O)NC(=O)[C@H](Cc2ccc(C(F)(F)F)cc2)NC(=O)[C@H](Cc2ccccc2)NC1=O (H-[Dmt][dK]F[Phe(4-CF3)]D-NH2; lactam 2-5)"
  pEC50: 8.44
- Molecule: "NC(=O)[C@@H]1CC(=O)NCCCC[C@@H](NC(=O)[C@@H](N)Cc2ccc(O)cc2)C(=O)N[C@@H](Cc2ccc(F)cc2F)C(=O)N[C@@H](Cc2ccccc2)C(=O)N1"
  pEC50: 8.12

* * *

Collected pEC50 values appear next to each entry.
Target: Mu-type opioid receptor (Homo sapiens)
Assay: Agonist activity at human recombinant mu opioid receptor expressed in CHO cells co-expressing C-terminally modified GGalphaqi5 assessed as stimulation of calcium release by Fluo-4 AM dye-based fluorescence assay
pEC50: −log10 of the molar value.
Assay endpoint: pEC50

- Structure smiles: "Cc1cc(O)cc(C)c1C[C@H](N)C(=O)N[C@@H]1CCCCNC(=O)C[C@@H](C(N)=O)NC(=O)[C@H](Cc2ccccc2)NC(=O)[C@H](Cc2ccc(F)cc2)NC1=O"
  Quantitative readout: 8.60
- Structure smiles: "NC(=O)[C@@H]1CC(=O)NCCCC[C@@H](NC(=O)[C@@H](N)Cc2ccc(O)cc2)C(=O)N[C@@H](Cc2ccccc2)C(=O)N[C@@H](Cc2ccc(F)cc2)C(=O)N1"
  Quantitative readout: 8.49
- Structure smiles: "NC(=O)[C@@H]1CC(=O)NCCCC[C@@H](NC(=O)[C@@H](N)Cc2ccc(O)cc2)C(=O)N[C@@H](Cc2ccccc2)C(=O)N[C@@H](Cc2ccc(F)cc2F)C(=O)N1"
  Quantitative readout: 8.20

* * *

Target: Kappa-type opioid receptor (Homo sapiens, UniProt P41145)
Sequence (P41145 whole entry): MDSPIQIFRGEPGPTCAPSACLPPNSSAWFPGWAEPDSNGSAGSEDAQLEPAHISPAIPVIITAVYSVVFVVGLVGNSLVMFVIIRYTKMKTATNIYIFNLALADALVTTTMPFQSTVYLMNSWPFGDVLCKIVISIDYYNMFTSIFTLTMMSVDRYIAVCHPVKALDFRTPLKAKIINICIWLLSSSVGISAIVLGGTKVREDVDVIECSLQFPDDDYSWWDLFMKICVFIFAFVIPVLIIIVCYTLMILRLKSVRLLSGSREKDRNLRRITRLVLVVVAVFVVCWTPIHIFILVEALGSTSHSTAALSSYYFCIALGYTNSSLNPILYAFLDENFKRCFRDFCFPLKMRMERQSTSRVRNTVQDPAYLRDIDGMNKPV
Assay: Agonist activity at human recombinant kappa opioid receptor expressed in CHO cells co-expressing C-terminally modified Galphaqi5 assessed as stimulation of calcium release by Fluo-4 AM dye-based fluorescence assay
pEC50: −log10 of the molar value.
The threshold is inclusive: pEC50 of exactly 8 counts as Met; values below receive Not met.

- Structure smiles: "NC(=O)[C@@H]1CC(=O)NCCCC[C@@H](NC(=O)[C@@H](N)Cc2ccc(O)cc2)C(=O)N[C@@H](Cc2ccc(C(F)(F)F)cc2)C(=O)N[C@@H](Cc2ccccc2)C(=O)N1"
  Category label: "Not met"
- Structure smiles: "NC(=O)[C@@H]1CC(=O)NCCCC[C@@H](NC(=O)[C@@H](N)Cc2ccc(O)cc2)C(=O)N[C@@H](Cc2ccccc2)C(=O)N[C@@H](Cc2ccc(F)cc2F)C(=O)N1"
  Category label: "Met"
- Structure smiles: "Cc1cc(O)cc(C)c1C[C@H](N)C(=O)N[C@@H]1CCCCNC(=O)C[C@@H](C(N)=O)NC(=O)[C@H](Cc2ccccc2)NC(=O)[C@H](Cc2ccc(F)cc2)NC1=O"
  Category label: "Met"
- Structure smiles: "Cc1cc(O)cc(C)c1C[C@H](N)C(=O)N[C@@H]1CCCCNC(=O)C[C@@H](C(N)=O)NC(=O)[C@H](Cc2ccc(F)cc2F)NC(=O)[C@H](Cc2ccccc2)NC1=O"
  Category label: "Met"

* * *

Target: Mu-type opioid receptor (Rattus norvegicus)
Sequence (P33535 whole entry): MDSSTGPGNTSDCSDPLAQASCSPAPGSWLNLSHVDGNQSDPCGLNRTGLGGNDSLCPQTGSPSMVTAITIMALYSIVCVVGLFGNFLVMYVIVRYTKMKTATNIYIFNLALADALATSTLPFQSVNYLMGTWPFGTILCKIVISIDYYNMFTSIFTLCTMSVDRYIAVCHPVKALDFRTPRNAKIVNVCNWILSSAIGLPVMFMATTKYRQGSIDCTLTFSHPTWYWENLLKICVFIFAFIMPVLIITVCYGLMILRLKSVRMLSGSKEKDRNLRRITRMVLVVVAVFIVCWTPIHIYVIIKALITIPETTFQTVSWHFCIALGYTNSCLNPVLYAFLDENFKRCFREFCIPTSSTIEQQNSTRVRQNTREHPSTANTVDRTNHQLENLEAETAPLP
Test: Displacement of [3H]DAMGO from mu opioid receptor in Wistar rat brain membranes after 120 mins by scintillation counting analysis
Where a SMILES comes first, the peptide text is derived from it. Bridges are numbered along the chain shown (N, C = ends). [ ]: non-standard residue; d: D form. Phe(4-CF3) = N[C@@H](Cc1ccc(C(F)(F)F)cc1)C(=O)O; Dmt = Cc1cc(O)cc(C)c1C[C@H](N)C(=O)O
Collected IC50 values appear next to each entry.
Assay endpoint: IC50 (nM)

- Molecule: "NC(=O)[C@@H]1CC(=O)NCCCC[C@@H](NC(=O)[C@@H](N)Cc2ccc(O)cc2)C(=O)N[C@@H](Cc2ccccc2)C(=O)N[C@@H](Cc2ccc(F)cc2F)C(=O)N1"
  Assay endpoint: "IC50"
  Operator symbol: "="
  Quantitative readout: 0.42
- Molecule: "NC(=O)[C@@H]1CC(=O)NCCCC[C@@H](NC(=O)[C@@H](N)Cc2ccc(O)cc2)C(=O)N[C@@H](Cc2ccc(F)cc2)C(=O)N[C@@H](Cc2ccccc2)C(=O)N1"
  Assay endpoint: "IC50"
  Operator symbol: "="
  Quantitative readout: 0.72
- Molecule: "Cc1cc(O)cc(C)c1C[C@H](N)C(=O)N[C@@H]1CCCCNC(=O)C[C@@H](C(N)=O)NC(=O)[C@H](Cc2ccc(F)cc2F)NC(=O)[C@H](Cc2ccccc2)NC1=O"
  Assay endpoint: "IC50"
  Operator symbol: "="
  Quantitative readout: 0.49
- Molecule: "Cc1cc(O)cc(C)c1C[C@H](N)C(=O)N[C@@H]1CCCCNC(=O)C[C@@H](C(N)=O)NC(=O)[C@H](Cc2ccc(C(F)(F)F)cc2)NC(=O)[C@H](Cc2ccccc2)NC1=O (H-[Dmt][dK]F[Phe(4-CF3)]D-NH2; lactam 2-5)"
  Assay endpoint: "IC50"
  Operator symbol: "="
  Quantitative readout: 0.92
- Molecule: "Cc1cc(O)cc(C)c1C[C@H](N)C(=O)N[C@@H]1CCCCNC(=O)C[C@@H](C(N)=O)NC(=O)[C@H](Cc2ccccc2)NC(=O)[C@H](Cc2ccc(C(F)(F)F)cc2)NC1=O"
  Assay endpoint: "IC50"
  Operator symbol: ">"
  Quantitative readout: 1000
- Molecule: "NC(=O)[C@@H]1CC(=O)NCCCC[C@@H](NC(=O)[C@@H](N)Cc2ccc(O)cc2)C(=O)N[C@@H](Cc2ccccc2)C(=O)N[C@@H](Cc2ccc(C(F)(F)F)cc2)C(=O)N1"
  Assay endpoint: "IC50"
  Operator symbol: "="
  Quantitative readout: 1.6
- Molecule: "Cc1cc(O)cc(C)c1C[C@H](N)C(=O)N[C@@H]1CCCCNC(=O)C[C@@H](C(N)=O)NC(=O)[C@H](Cc2ccc(F)cc2)NC(=O)[C@H](Cc2ccccc2)NC1=O"
  Assay endpoint: "IC50"
  Operator symbol: "="
  Quantitative readout: 0.61
- Molecule: "NC(=O)[C@@H]1CC(=O)NCCCC[C@@H](NC(=O)[C@@H](N)Cc2ccc(O)cc2)C(=O)N[C@@H](Cc2ccc(F)cc2F)C(=O)N[C@@H](Cc2ccccc2)C(=O)N1"
  Assay endpoint: "IC50"
  Operator symbol: "="
  Quantitative readout: 0.69
- Molecule: "Cc1cc(O)cc(C)c1C[C@H](N)C(=O)N[C@@H]1CCCCNC(=O)C[C@@H](C(N)=O)NC(=O)[C@H](Cc2ccccc2)NC(=O)[C@H](Cc2ccc(F)cc2)NC1=O"
  Assay endpoint: "IC50"
  Operator symbol: "="
  Quantitative readout: 0.55
- Molecule: "NC(=O)[C@@H]1CC(=O)NCCCC[C@@H](NC(=O)[C@@H](N)Cc2ccc(O)cc2)C(=O)N[C@@H](Cc2ccc(C(F)(F)F)cc2)C(=O)N[C@@H](Cc2ccccc2)C(=O)N1"
  Assay endpoint: "IC50"
  Operator symbol: ">"
  Quantitative readout: 1000
- Molecule: "Cc1cc(O)cc(C)c1C[C@H](N)C(=O)N[C@@H]1CCCCNC(=O)C[C@@H](C(N)=O)NC(=O)[C@H](Cc2ccccc2)NC(=O)[C@H](Cc2ccc(F)cc2F)NC1=O"
  Assay endpoint: "IC50"
  Operator symbol: "="
  Quantitative readout: 0.54
- Molecule: "NC(=O)[C@@H]1CC(=O)NCCCC[C@@H](NC(=O)[C@@H](N)Cc2ccc(O)cc2)C(=O)N[C@@H](Cc2ccccc2)C(=O)N[C@@H](Cc2ccc(F)cc2)C(=O)N1"
  Assay endpoint: "IC50"
  Operator symbol: "="
  Quantitative readout: 0.98
